# system.tested: EGFR (Homo sapiens (Human))
# Sequence (P00533 25-1210): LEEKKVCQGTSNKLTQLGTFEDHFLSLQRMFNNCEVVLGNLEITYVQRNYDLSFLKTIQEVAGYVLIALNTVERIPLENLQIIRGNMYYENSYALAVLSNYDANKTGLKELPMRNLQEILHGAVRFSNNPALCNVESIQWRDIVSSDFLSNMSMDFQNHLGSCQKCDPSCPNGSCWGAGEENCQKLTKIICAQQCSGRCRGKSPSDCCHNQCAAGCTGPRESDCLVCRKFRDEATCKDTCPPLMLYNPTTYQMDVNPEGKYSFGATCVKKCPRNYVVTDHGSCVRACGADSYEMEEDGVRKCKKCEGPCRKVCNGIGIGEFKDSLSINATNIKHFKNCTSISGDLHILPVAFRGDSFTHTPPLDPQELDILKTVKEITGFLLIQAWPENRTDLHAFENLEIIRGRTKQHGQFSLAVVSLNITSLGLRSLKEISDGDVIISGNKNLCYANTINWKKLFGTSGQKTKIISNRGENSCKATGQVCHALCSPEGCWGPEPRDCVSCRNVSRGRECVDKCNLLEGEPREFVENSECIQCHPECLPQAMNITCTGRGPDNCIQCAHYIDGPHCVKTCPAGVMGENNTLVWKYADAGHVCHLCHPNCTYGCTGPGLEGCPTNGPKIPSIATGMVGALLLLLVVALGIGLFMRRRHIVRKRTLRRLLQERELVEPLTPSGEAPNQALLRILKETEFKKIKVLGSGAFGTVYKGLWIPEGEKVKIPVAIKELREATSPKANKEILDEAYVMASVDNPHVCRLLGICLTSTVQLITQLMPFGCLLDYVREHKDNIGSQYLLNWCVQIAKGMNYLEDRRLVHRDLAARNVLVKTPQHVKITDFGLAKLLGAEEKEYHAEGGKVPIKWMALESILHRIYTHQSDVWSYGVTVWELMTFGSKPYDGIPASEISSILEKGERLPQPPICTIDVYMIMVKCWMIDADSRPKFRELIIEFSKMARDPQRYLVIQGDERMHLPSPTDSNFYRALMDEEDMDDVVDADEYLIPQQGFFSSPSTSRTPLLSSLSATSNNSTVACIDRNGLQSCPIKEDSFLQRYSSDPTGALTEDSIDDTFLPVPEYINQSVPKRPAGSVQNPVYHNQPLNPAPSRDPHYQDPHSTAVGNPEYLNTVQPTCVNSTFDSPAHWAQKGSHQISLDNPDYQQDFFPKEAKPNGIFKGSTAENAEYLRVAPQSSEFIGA
# method.notes: ErbB Enzyme Assay (HTRF KinEASE-TK), Assay 3
# Assay type: biochemical
# cond: EGFR enzyme
pIC50: −log10 of the molar value.
observation.type: pIC50

Guide cases for pIC50, answers given:
compound="CC#CC(=O)N1CCC[C@@H](c2ccc3ncnc(Nc4ccc(Oc5ccn6ncnc6c5)c(C)c4F)c3n2)CC1 (single isomer, unassigned) [Example 212]" system_tested="EGFR (Homo sapiens (Human))" obs_value=5.47
compound=C=CC(=O)N1CCN(c2ccc3ncnc(Nc4ccc(Oc5ccc6c(c5)ncn6C)c(Cl)c4)c3n2)CC1 system_tested="EGFR (Homo sapiens (Human))" obs_value=6.06
compound="C=CC(=O)N1C[C@@H]2CC[C@H]1C[C@H]2c1ccc2ncnc(Nc3ccc(Oc4ccn5ncnc5c4)c(C)c3F)c2n1 (single isomer, unassigned)" system_tested="EGFR (Homo sapiens (Human))" obs_value=5.99
compound=C=CC(=O)N1CCN(c2ccc3ncnc(Nc4cc(C)c(Oc5ccn6ncnc6c5)cc4F)c3n2)CC1(C)C system_tested="EGFR (Homo sapiens (Human))" obs_value=5.29
compound=C=CC(=O)N1CC2CCC(C1)N2c1ccc2ncnc(Nc3ccc(Oc4cnc5c(c4)ncn5C)c(C)c3F)c2n1 system_tested="EGFR (Homo sapiens (Human))" obs_value=6.75
compound="C=CC(=O)N1CCCC[C@@H](c2ccc3ncnc(Nc4cc(C)c(Oc5ccc6c(c5)ncn6C)cc4F)c3n2)C1 (racemic)" system_tested="EGFR (Homo sapiens (Human))" obs_value=5.58
compound=C=CC(=O)N1CCC(Oc2nc3c(Nc4ccc(Oc5ccn6ncnc6c5)c(C)c4F)ncnc3cc2OC)CC1 system_tested="EGFR (Homo sapiens (Human))" obs_value=6.52
compound=C=CC(=O)N1[C@@H]2CC[C@H]1C[C@@H](c1ccc3ncnc(Nc4ccc(Oc5cnc6c(c5)ncn6C)c(C)c4F)c3n1)C2 system_tested="EGFR (Homo sapiens (Human))" obs_value=5.42

I: C=CC(=O)N1C[C@H]2C[C@@H]1[C@H](c1ccc3ncnc(Nc4ccc(Oc5ccc6c(c5)ncn6C)c(C)c4F)c3n1)C2 (racemic)
II: C=CC(=O)N1CCN(c2ccc3ncnc(Nc4ccc(Oc5ccn6ncnc6c5)c(Cl)c4)c3n2)CC1(C)C
query: // which entry reports the smaller pIC50, I or II ? Indicate your choice by writing its label.
result: II
(II: 5.77, I: 6.26)
